So I've got a bunch of compounds here, and I need their IC50 values.
Target: recombinant full-length WRN protein (1-1432) (Homo sapiens, UniProt Q14191)
Construct: recombinant full-length WRN protein (1-1432)
Sequence (Q14191 whole entry): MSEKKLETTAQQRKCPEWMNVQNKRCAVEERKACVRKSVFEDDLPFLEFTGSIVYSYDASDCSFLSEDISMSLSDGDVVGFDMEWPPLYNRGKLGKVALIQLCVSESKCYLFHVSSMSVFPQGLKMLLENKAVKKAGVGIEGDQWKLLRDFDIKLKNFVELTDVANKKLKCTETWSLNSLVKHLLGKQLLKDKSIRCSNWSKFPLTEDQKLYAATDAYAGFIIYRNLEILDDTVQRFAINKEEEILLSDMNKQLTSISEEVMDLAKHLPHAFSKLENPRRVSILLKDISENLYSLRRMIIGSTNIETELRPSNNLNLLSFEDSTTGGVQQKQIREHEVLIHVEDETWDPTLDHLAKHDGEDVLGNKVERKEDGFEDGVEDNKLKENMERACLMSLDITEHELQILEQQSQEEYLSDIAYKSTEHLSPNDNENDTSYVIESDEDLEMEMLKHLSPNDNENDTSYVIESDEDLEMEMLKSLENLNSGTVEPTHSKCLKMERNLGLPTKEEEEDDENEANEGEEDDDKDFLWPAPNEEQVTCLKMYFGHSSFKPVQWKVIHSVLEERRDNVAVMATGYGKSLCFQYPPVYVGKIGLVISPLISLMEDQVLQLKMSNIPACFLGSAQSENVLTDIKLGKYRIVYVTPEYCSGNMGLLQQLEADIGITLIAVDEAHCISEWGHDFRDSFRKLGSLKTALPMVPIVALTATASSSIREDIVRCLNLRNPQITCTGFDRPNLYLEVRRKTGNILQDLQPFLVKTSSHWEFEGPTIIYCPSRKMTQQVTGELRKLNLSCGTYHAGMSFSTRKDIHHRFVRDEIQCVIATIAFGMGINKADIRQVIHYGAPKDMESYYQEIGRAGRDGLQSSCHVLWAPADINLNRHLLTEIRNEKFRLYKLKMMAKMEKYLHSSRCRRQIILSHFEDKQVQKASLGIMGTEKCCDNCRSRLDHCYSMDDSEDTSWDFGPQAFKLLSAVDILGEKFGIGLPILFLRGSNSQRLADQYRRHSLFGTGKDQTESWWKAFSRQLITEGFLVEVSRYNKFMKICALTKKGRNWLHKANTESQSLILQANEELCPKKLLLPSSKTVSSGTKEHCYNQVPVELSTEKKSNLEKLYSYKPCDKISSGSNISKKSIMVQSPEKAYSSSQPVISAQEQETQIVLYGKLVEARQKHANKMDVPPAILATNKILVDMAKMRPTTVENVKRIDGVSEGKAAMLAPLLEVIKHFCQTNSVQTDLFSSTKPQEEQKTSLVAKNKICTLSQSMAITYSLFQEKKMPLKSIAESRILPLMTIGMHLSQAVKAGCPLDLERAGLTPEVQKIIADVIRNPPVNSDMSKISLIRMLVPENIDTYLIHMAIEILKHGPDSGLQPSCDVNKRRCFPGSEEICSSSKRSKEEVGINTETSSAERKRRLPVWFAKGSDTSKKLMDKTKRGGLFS
Experiment: WRN unwinding activity, fluorogenic 384-well assay (Example A)
Assay type: biochemical
Settings: WRN unwinding activity, 4 hr; Table 2; read-out: 4 hr UNW pIC50 (converted)
Answer format reminder: number followed by unit.

>>> readout_value("COCCO[C@@H]1C[C@H](c2ccc(N(C)S(=O)(=O)c3ccc4c(c3)nc(C)n4C)cc2)[C@@H](C(=O)O)[C@H](C(=O)Nc2ccc(C(F)(F)F)cc2F)C1 (stereo in doubt) [Example 316]")
"1.58 nM"
>>> readout_value("Cc1nc2cc(S(=O)(=O)N(C)c3ccc([C@H]4CCC[C@@H](C(=O)NC56CC(CC(F)(F)F)(C5)C6)[C@@H]4C(=O)O)cc3)ccc2n1C [Example 174]")
"20 nM"
>>> readout_value("CC(=O)N[C@H]1C[C@H](COc2ccc(C(F)(F)F)cc2)[C@@H](C(=O)O)[C@H](c2ccc(N(C)S(=O)(=O)c3ccc4c(c3)nc(C)n4C)cc2)C1 (single isomer, unassigned) [Example 297]")
"2510 nM"
>>> readout_value("Cc1nc2cc(S(=O)(=O)N(C)c3ccc([C@H]4C[C@@H](N5CC[C@H](F)C5)C[C@@H](C(=O)Nc5ccc(C(F)(F)F)cc5F)[C@@H]4C(=O)O)cc3)ccc2n1C (stereo in doubt) [Example 377]")
"5.01 nM"
>>> readout_value("Cc1nc2cc(S(=O)(=O)N(C)c3ccc([C@H]4C[C@H](N5CC[C@@H](F)C5)C[C@@H](C(=O)Nc5ccc(C(F)(F)F)cc5F)[C@@H]4C(=O)O)cc3)ccc2n1C (stereo in doubt) [Example 383]")
"7.94 nM"
>>> readout_value("Cc1nc2cc(S(=O)(=O)N(C)c3ccc([C@H]4CCC[C@@H](C(=O)Nc5ccc(C(F)(F)F)cc5F)[C@@H]4C(=O)O)cc3)ccc2[nH]1 (single isomer, unassigned) [Example 91]")
"126 nM"
>>> readout_value("CN(c1ccc([C@H]2CCC[C@@H](C(=O)Nc3ccc(C(F)(F)F)cc3F)[C@@H]2C(=O)O)cc1)S(=O)(=O)c1cccc([C@@H]2CCCNC2)c1 [Example 262]")
"1.58 nM"
>>> readout_value("Cc1nc2cc(S(=O)(=O)N(C)c3ccc([C@H]4CCC[C@@H](C(=O)Nc5ccc6c(c5)CC(F)(F)C6)[C@@H]4C(=O)O)cc3)ccc2n1C [Example 194]")
"7.94 nM"
>>> readout_value("N#Cc1ccc(-c2ccc([C@H]3CCC[C@@H](C(=O)Nc4ccc(C(F)(F)F)cc4F)[C@@H]3C(=O)O)cc2)nn1 [Example 55]")
"2.51 nM"
>>> readout_value("Cc1nc2cc(S(=O)(=O)N(C)c3ccc([C@H]4CCC[C@@H](C(=O)Nc5ccc(C(F)(F)F)cc5F)[C@@H]4C(=O)O)nc3)ccc2n1C (relative stereo) [Example 161]")
"2.51 nM"

Could I get IC50 for every one of these entries?
1. O=C(O)[C@@H]1[C@@H](c2ccc(-c3ccccc3)cc2)CCC[C@H]1C(=O)Nc1ccc(C(F)(F)F)cc1F [Example 11]
2. O=C(O)[C@@H]1[C@@H](c2ccc(C3=CCOC3)cc2)CCC[C@H]1C(=O)Nc1ccc(C(F)(F)F)cc1F [Example 57]
3. Cc1nc2cc(S(=O)(=O)N(C)c3ccc([C@H]4C[C@@H](OCC5(C)COC5)C[C@@H](C(=O)Nc5ccc(C(F)(F)F)cc5F)[C@@H]4C(=O)O)cc3)ccc2n1C (stereo in doubt) [Example 367]
4. Cc1nc2cc(S(=O)(=O)N3CCOc4cc([C@H]5CCC[C@@H](C(=O)Nc6ccc(C(F)(F)F)cc6F)[C@@H]5C(=O)O)ccc43)ccc2n1C (single isomer, unassigned) [Example 241]
5. CN[C@@H]1C[C@H](c2ccc(N(C)S(=O)(=O)c3ccc4c(c3)nc(C)n4C)cc2)[C@@H](C(=O)O)[C@H](C(=O)Nc2ccc(C(F)(F)F)cc2F)C1 (single isomer, unassigned) [Example 256]
6. O=C(O)[C@@H]1[C@@H](c2ccc(-c3ncnc4sccc34)cc2)CCC[C@H]1C(=O)Nc1ccc(C(F)(F)F)cc1F [Example 34]

# output
1: 158 nM; 2: 100 nM; 3: 1.58 nM; 4: 5.01 nM; 5: 1.26 nM; 6: 2510 nM

Could I get IC50 for every one of these entries?
1. O=C(O)[C@@H]1[C@@H](c2ccc(-c3cccnc3)cc2)CCC[C@H]1C(=O)Nc1ccc(C(F)(F)F)cc1F [Example 8]
2. COCCOc1cc([C@H]2CCC[C@@H](C(=O)Nc3ccc(C(F)(F)F)cc3F)[C@@H]2C(=O)O)ccc1C(F)(F)F (racemic) [Example 234]
3. O=C(O)[C@@H]1[C@@H](c2ccc(C3=CCS(=O)(=O)C3)cc2)CCC[C@H]1C(=O)Nc1ccc(C(F)(F)F)cc1F [Example 58]
4. Cc1nc2cc(S(=O)(=O)N(C)c3ccc([C@@H]4CNC[C@H](C(=O)Nc5ccc(C(F)(F)F)cc5F)[C@H]4C(=O)O)cc3)ccc2n1C (single isomer, unassigned) [Example 307]
5. [2H]C([2H])([2H])O[C@@H]1C[C@H](c2ccc(N(C)S(=O)(=O)c3ccc4c(c3)nc(C)n4C)cc2)[C@@H](C(=O)O)[C@H](C(=O)Nc2ccc(C(F)(F)F)cc2F)C1 (single isomer, unassigned) [Example 147]

# output
1. 3.98 nM
2. 1000 nM
3. 31.6 nM
4. 631 nM
5. 79.4 nM

----------
Test system: SW48 human colorectal cancer cells (MSI-H cancer cells)
Experiment: SW48 cell viability, CellTiter-Glo, 120 hours (Example B)
Conditions: Homo sapiens, SW48, 120 h, read-out: SW48 pCC50, SW48 cell viability, 120 hours incubation (converted); Table 2
So I've got a bunch of compounds here, and I need their CC50 values.
Numbers only, in nM.

Could I get CC50 for every one of these entries?
1. Cc1cc([C@H]2CCC[C@@H](C(=O)Nc3ccc(C(F)(F)F)cc3F)[C@@H]2C(=O)O)ccc1N(C)S(=O)(=O)c1ccc2c(c1)nc(C)n2C [Example 295]
2. CN(c1ccc([C@H]2CCC[C@@H](C(=O)Nc3ccc(C(F)(F)F)cc3F)[C@@H]2C(=O)O)cc1)S(=O)(=O)c1ccc2c(ccn2C)c1 [Example 107]
3. Cc1nc2cc(S(=O)(=O)N(C)c3ccc([C@H]4CC[C@@H](C)[C@@H](C(=O)Nc5ccc(C(F)(F)F)cc5F)[C@@H]4C(=O)O)cc3)ccc2n1C (relative stereo) [Example 235]
4. CCO[C@@H]1C[C@H](COc2ccc(C(F)(F)F)cc2)[C@@H](C(=O)O)[C@H](c2ccc(N(C)S(=O)(=O)c3ccc4c(c3)nc(C)n4C)cc2)C1 (single isomer, unassigned) [Example 220]
5. Cc1nc2cc(S(=O)(=O)N(C)c3ccc([C@H]4CCC[C@@H](CO[C@H]5CC[C@H](C(F)(F)F)CC5)[C@@H]4C(=O)O)cc3)ccc2n1C [Example 215]

# output
1. 1580
2. 794
3. 251
4. 15800
5. 20000

----------
Assay: Cell culture media unbound percentage and stability by rapid equilibrium dialysis (Example C)
Format: in vitro ADME
Details: bovine, cell assay medium (RPMI-1640 with 10% fetal bovine serum), pH 7.4, rapid equilibrium dialysis, 4 hours at 37° C., read-out: Cell Culture Media Binding (% unbound)
Structures can show the parent of a compound that is named as a salt.
// bucketize fraction unbound at 4 h, 1 µM: low interval (below 0.08), middle interval (0.08 to below 0.2), high interval (0.2 or more)

>>> category_label("Cc1nc2cc(S(=O)(=O)N(C)c3ccc([C@@H]4CCC[C@H](COc5ccc(C(F)(F)F)cc5)[C@H]4C(=O)O)cc3)cc([C@@H]3CCCN(C)C3)c2n1C (single isomer, unassigned) [Example 211, formic acid salt]")
"low interval"
>>> category_label("CN(c1ccc([C@H]2CCC[C@@H](C(=O)Nc3ccc(C(F)(F)F)cc3F)[C@@H]2C(=O)O)cc1)S(=O)(=O)c1ccc2c(c1)nc(N)n2C")
"middle interval"
>>> category_label("Cc1nc2cc(S(=O)(=O)N(C)c3ccc([C@H]4C[C@@H](OCC5(C)COC5)C[C@@H](C(=O)Nc5ccc(C(F)(F)F)cc5F)[C@@H]4C(=O)O)cc3)ccc2n1C (stereo in doubt)")
"middle interval"
>>> category_label("CN(c1ccc([C@H]2CCC[C@@H](C(=O)Nc3ccc(C(F)(F)F)cc3F)[C@@H]2C(=O)O)cc1)S(C)(=O)=O")
"high interval"

# input # classify by fraction unbound at 4 h, 1 µM band: Cc1nc2cc(S(=O)(=O)N(C)c3ccc([C@H]4C[C@H](N5CC6(F)CC5C6)C[C@@H](C(=O)Nc5ccc(C(F)(F)F)cc5F)[C@@H]4C(=O)O)cc3)ccc2n1C (relative stereo)
# output low interval

# input # classify by fraction unbound at 4 h, 1 µM band: Cc1nc2cc(S(=O)(=O)N(C)c3ccc([C@H]4C[C@H](NCC(F)(F)F)C[C@@H](C(=O)Nc5ccc(C(F)(F)F)cc5F)[C@@H]4C(=O)O)cc3)ccc2n1C (stereo in doubt)
# output low interval

# input # classify by fraction unbound at 4 h, 1 µM band: Cc1nc2cc(S(=O)(=O)N(C)c3ccc([C@H]4C[C@@H](C#N)C[C@@H](C(=O)Nc5ccc(C(F)(F)F)cc5F)[C@@H]4C(=O)O)cc3)ccc2n1C (single isomer, unassigned)
# output middle interval

# input # classify by fraction unbound at 4 h, 1 µM band: CN(c1ccc([C@H]2CCC[C@@H](C(=O)Nc3ccc(C(F)(F)F)cc3F)[C@@H]2C(=O)O)cc1)S(=O)(=O)c1cccc(C2CNC(=O)C2)c1 (stereo partly drawn)
# output middle interval

# input # classify by fraction unbound at 4 h, 1 µM band: Cc1nc2cc(S(=O)(=O)N(C)c3ccc([C@H]4C[C@@H](NCC(F)(F)F)C[C@@H](C(=O)Nc5ccc(C(F)(F)F)cc5F)[C@@H]4C(=O)O)cc3)ccc2n1C (stereo in doubt)
# output middle interval

# input # classify by fraction unbound at 4 h, 1 µM band: Cc1nc2cc(S(=O)(=O)N(C)c3ccc([C@@H]4C[C@H](N5CC[C@@H](F)C5)C[C@H](C(=O)Nc5ccc(C(F)(F)F)cc5F)[C@H]4C(=O)O)cc3)ccc2n1C (stereo in doubt)
# output high interval

# input # classify by fraction unbound at 4 h, 1 µM band: CC(=O)N(C)[C@H]1C[C@H](c2ccc(N(C)S(=O)(=O)c3ccc4c(c3)nc(C)n4C)cc2)[C@@H](C(=O)O)[C@H](C(=O)Nc2ccc(C(F)(F)F)cc2F)C1 (stereo in doubt)
# output high interval
